Attribute: viability at 28.5 h, 10 µM
Test: in vitro
Conditions: human, hela cells, % viability
State just the number; it will be interpreted in %.

> print(dat)
                                   compound  value.unit  experimental.result
1  O=S(=O)(Nc1cccc(-c2cnco2)c1)c1cccc2cccnc12           %                   81

Kindly note the recorded viability at 28.5 h, 10 µM for COc1ccc(CNC(=O)c2cc(S(=O)(=O)N3CCCC3)cs2)cc1 , which is 93.6

Kindly note the recorded viability at 28.5 h, 10 µM for C=CCNC(=O)N[C@H]1CO[C@H]2[C@@H]1OC[C@H]2OC(=O)Nc1ccccc1 , which is 115

Kindly note the recorded viability at 28.5 h, 10 µM for COCCCOc1cc(NC(C)C)ncn1 , which is 92.6

Kindly note the recorded viability at 28.5 h, 10 µM for Cc1cc(C)n(C(C)Cn2cncc2-c2cn(C)nc2C)n1 (centres unmarked) , which is 102

Kindly note the recorded viability at 28.5 h, 10 µM for Cc1cc(C)n(C(C)CC(=O)Nc2cccc(OC(C)C)c2)n1 (centres unmarked) , which is 96.5
